Read-out: Insulin-like growth factor-binding protein 1 (IGFBP1), IGFBP1 (gene 3484)
Assay: LTEA_HepaRG_IGFBP1: Life Technologies and Expression Analysis (LTEA) Assay for Insulin-like growth factor-binding protein 1 (IGFBP1) using HepaRG (AID 2283508)
Conditions: mRNA level, 48 h; actives raise or lower the signal
Active and inactive are the calls of the source. How the source made its calls: active means hit-call score of the fitted dose curve at least 0.9, where 1 is the maximum; inactive means score below 0.9.
Classes to choose from: active, inactive

What did the test return for CCC12COCN1COC2 ? inactive

Then CCN(CC)CCO ? inactive

Then COC(=O)Nc1nc2ccccc2[nH]1 ? inactive

Then Clc1ccc(C(c2ccc(Cl)cc2)C(Cl)Cl)cc1 ? inactive

Then C1=Cc2cccc3cccc1c23 ? inactive
